B1: PTS system mannose-specific EIIAB component, P69797 (parent)
chain: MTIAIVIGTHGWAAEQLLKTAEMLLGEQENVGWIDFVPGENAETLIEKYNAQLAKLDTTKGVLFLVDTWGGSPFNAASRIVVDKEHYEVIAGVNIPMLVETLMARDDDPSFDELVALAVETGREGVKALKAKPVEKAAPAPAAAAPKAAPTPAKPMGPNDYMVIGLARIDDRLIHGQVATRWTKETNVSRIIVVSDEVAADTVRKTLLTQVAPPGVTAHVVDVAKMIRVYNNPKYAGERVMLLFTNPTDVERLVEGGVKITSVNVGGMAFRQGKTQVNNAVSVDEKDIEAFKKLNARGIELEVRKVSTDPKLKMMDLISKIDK

# Variants of: B1
# run_conditions: Escherichia coli (strain K12); pH 7.4; 22 °C; GdnHCl; Fluorescence; Sodium phosphate 20 mM; reversible: yes; structure 1PDO; whole UniProt chain shown
Label rule, in plain words: unfolding free energy of 10 kcal/mol and up is label 1, under 10 kcal/mol is label 0.

1) W69F: label 0

// query Check if unfolding free energy >= 10 kcal/mol (inclusive). Item: W12F W69F
// result label 1

// query Check if unfolding free energy >= 10 kcal/mol (inclusive). Item: W12F W33F
// result label 1
